Biological target: Phospholipase A and acyltransferase 5 (Homo sapiens)
Sequence (Q96KN8 whole entry): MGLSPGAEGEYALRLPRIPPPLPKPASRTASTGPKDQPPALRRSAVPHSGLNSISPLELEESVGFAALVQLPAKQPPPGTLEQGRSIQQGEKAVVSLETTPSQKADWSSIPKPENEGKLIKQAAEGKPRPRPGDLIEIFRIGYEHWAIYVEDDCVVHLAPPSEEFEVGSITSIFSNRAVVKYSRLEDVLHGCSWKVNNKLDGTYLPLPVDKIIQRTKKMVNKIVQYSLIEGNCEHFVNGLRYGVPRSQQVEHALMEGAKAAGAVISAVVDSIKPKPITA
Assay: Inhibition of full-length C-terminal FLAG-tagged human PLAAT5 expressed in HEK293T cell lysate preincubated for 30 mins followed by MB064 addition and measured after 20 mins by SDS-PAGE based ABPP analysis
pIC50: −log10 of the molar value.
parameter: pIC50

[[record]]
smiles_structure = "O=C(CCCc1ccccc1)C(=O)NCCc1ccc(Oc2ccc(C(F)(F)F)cn2)cc1"
target_system = "Phospholipase A and acyltransferase 5 (Homo sapiens)"
value = 7.50


A: O=C(CCCc1ccccc1)C(=O)NCCc1ccc(Br)cc1
B: COc1ccc(CCC(=O)C(=O)NCCc2ccccc2)cc1
For the two items A and B , which reports the higher pIC50 value? // output: label of the selected item
A
(A: 8.00, B: 5.90)
